Target: T1, recombinant extracellular domain (ECD) of human TF, amino acid 1-219 of the mature chain, C-terminal His6-tag (human, UniProt P13726 33-251)
T1 construct: expressed in a mammalian system; used for ELISA and Biacore; biotinylated by NHS-ester for the Fab ELISA; also called His6-TF-ECD1-219; HumanTF1-219
Assay: Biacore
Kindly supply the reported Kd values for the records listed here.
Report the value in nM with no unit label.

Challenge: GET /values?readout=Kd&item= M1583 (antibody, V domains shown, complete MAb; FR4 is its own entry; also called H177/L3) VH: EVQLVQSGAEVKKPGESLRISCKGSGYTFGPYWIEWVRQMPGKGLEWMGDIIPGSGWTNYSPSFQGHVTISADKSISTAYLQWSSLKASDTAMYYCARSGYYGNSGFAYWGQGTLVTVSS VL: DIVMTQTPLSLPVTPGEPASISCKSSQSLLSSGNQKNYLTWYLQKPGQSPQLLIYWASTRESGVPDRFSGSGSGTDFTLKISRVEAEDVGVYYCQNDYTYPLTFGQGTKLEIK
Response given: 0.42

Challenge: Please give the measured Kd for this binder: M1650 (antibody, V domains shown, complete MAb; FR4 is its own entry; also called H171/L369) VH: EVQLVQSGAEVKKPGESLRISCKGSGYTFAPYWIEWVRQMPGKGLEWMGDILPGTGFTTYSPSFQGHVTISADKSISTAYLQWSSLKASDTAMYYCARSGYYGNSGFAYWGQGTLVTVSS VL: DIVMTQTPLSLPVTPGEPASISCKSSQSLLTSYNQRNYLTWYLQKPGQSPQLLIYWASTRESGVPDRFSGSGSGTDFTLKISRVEAEDVGVYYCQNDLTYPLTFGQGTKLEIK
Response given: 0.19
